- System Name: T1, Recombinant Human DLL4 (delta-like protein 4) (human, UniProt Q9NR61 27-524)
- T1 construct: also called rHuman DLL4; Delta-like 4
- Experiment Summary: ELISA, Fab on plate-coated DLL4
As shown below, each of these binders has a reported ELISA (Signal-Noise) value.
API doc: respond with a numeric literal and nothing else, no unit.

Example results:
Q. Which ELISA (Signal-Noise) is reported for this binder? Fab VH5-51_IGHD5-18*01>3_IGHJ4*01 G100K/G104T S28R & V3-4_IGLJ1*01 (Fab, V domains shown, Fab from E. coli: VH-CH1 from Plasmid A with His6 and Flag tags, VL with lambda CL from Plasmid E; also called KT S28R) VH: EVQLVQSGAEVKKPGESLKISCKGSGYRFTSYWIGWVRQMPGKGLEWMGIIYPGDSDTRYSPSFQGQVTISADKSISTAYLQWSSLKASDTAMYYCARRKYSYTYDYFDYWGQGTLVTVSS VL: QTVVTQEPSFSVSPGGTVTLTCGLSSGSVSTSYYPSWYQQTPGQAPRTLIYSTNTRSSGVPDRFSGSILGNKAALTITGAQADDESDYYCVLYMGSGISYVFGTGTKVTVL
A. 0.29

Q. Which ELISA (Signal-Noise) is reported for this binder? Fab VH5-51_IGHD5-18*01>3_IGHJ4*01 G100K/G104T S28N & V3-4_IGLJ1*01 (Fab, V domains shown, Fab from E. coli: VH-CH1 from Plasmid A with His6 and Flag tags, VL with lambda CL from Plasmid E; also called KT S28N) VH: EVQLVQSGAEVKKPGESLKISCKGSGYNFTSYWIGWVRQMPGKGLEWMGIIYPGDSDTRYSPSFQGQVTISADKSISTAYLQWSSLKASDTAMYYCARRKYSYTYDYFDYWGQGTLVTVSS VL: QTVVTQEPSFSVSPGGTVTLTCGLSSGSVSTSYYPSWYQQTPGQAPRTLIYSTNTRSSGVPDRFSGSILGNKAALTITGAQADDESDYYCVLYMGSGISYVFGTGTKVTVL
A. 0.09

Continuing:
Q. Which ELISA (Signal-Noise) is reported for this binder? Fab VH5-51_IGHD5-18*01>3_IGHJ4*01 G100K/G104T G35A & V3-4_IGLJ1*01 (Fab, V domains shown, Fab from E. coli: VH-CH1 from Plasmid A with His6 and Flag tags, VL with lambda CL from Plasmid E; also called KT G35A) VH: EVQLVQSGAEVKKPGESLKISCKGSGYSFTSYWIAWVRQMPGKGLEWMGIIYPGDSDTRYSPSFQGQVTISADKSISTAYLQWSSLKASDTAMYYCARRKYSYTYDYFDYWGQGTLVTVSS VL: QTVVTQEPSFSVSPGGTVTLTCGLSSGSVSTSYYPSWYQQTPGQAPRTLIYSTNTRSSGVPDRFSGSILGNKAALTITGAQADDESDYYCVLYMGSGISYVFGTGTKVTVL
A. 0.06

Q. Which ELISA (Signal-Noise) is reported for this binder? Fab VH5-51_IGHD5-18*01>3_IGHJ4*01 G100K/G104T G35T & V3-4_IGLJ1*01 (Fab, V domains shown, Fab from E. coli: VH-CH1 from Plasmid A with His6 and Flag tags, VL with lambda CL from Plasmid E; also called KT G35T) VH: EVQLVQSGAEVKKPGESLKISCKGSGYSFTSYWITWVRQMPGKGLEWMGIIYPGDSDTRYSPSFQGQVTISADKSISTAYLQWSSLKASDTAMYYCARRKYSYTYDYFDYWGQGTLVTVSS VL: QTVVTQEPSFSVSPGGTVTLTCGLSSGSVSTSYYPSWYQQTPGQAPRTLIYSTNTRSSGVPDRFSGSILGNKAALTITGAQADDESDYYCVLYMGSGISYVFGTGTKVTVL
A. 0.07

From: patent US20120316071A1
